The origin of these recorded values is patent US11427549B2.

system: kochia (Kochia scoparia); experiment: Test A preemergence, kochia; assay type: in vivo; conditions: Bassia scoparia, pre-emergence, 240 h, 31 g ai/ha, 0 to 100 scale (0 no effect, 100 complete control), read-out: Plant response rating, Kochia
Property: pest or weed control at 31 g/ha; scope: individual compounds

Here is how some compounds turned out for pest or weed control at 31 g/ha.
>>> datavalue("O=C1NC(CCCC(F)(F)F)c2c(Oc3ncc(Cl)cn3)cccc21 (stereo not drawn)")
"0%"
>>> datavalue("FC(F)(F)CC[C@H]1OCc2cccc(Oc3ncc(Cl)cn3)c21")
"100%"

Recorded pest or weed control at 31 g/ha for O=C1c2cccc(Oc3ncc(Cl)cn3)c2C1CCC(F)(F)F (stereo not drawn) , please?
20%

----------
system: foxtail, giant (giant foxtail, Setaria faberii); assay: Test A preemergence, foxtail, giant; assay type: in vivo; conditions: Setaria faberi, pre-emergence, 240 h, 125 g ai/ha, 0 to 100 scale (0 no effect, 100 complete control), read-out: Plant response rating, Foxtail, Giant
Property: pest or weed control at 125 g/ha; scope: individual compounds
Could you give the number and then its unit, please?

Here is how some compounds turned out for pest or weed control at 125 g/ha.
>>> datavalue("O=C1O[C@H](CCC(F)(F)F)c2c(Oc3ncc(Cl)cn3)cccc21 [Compound 19]")
"100%"
>>> datavalue("O=C1Cc2cccc(Oc3ncc(Cl)cn3)c2C(CCCC(F)(F)F)O1 (stereo not shown) [Compound 17]")
"70%"
>>> datavalue("FC(F)(F)CCCC1COc2cccc(Oc3ncc(Cl)cn3)c21 (stereo not shown) [Compound 33]")
"100%"
>>> datavalue("O=C1Cc2cccc(Oc3ncc(Cl)cn3)c2C(CCC(F)(F)F)O1 (stereo not shown) [Compound 28]")
"100%"
>>> datavalue("O=C1OC(CCC(F)(F)F)Cc2c(Oc3ncc(Cl)cn3)cccc21 (stereo not shown) [Compound 23]")
"40%"

Item O=C1O[C@@H](CCC(F)(F)F)c2c(Oc3ncc(Cl)cn3)cccc21 [Compound 18] with foxtail, giant (giant foxtail, Setaria faberii) - pest or weed control at 125 g/ha?
0%

Item FC(F)(F)CCC1OCCc2cccc(Oc3ncc(Cl)cn3)c21 (stereo not shown) [Compound 32] with foxtail, giant (giant foxtail, Setaria faberii) - pest or weed control at 125 g/ha?
50%

Item O=C1OCc2cccc(Oc3ncc(Cl)cn3)c2C1CCCCC(F)(F)F (stereo not shown) [Compound 34] with foxtail, giant (giant foxtail, Setaria faberii) - pest or weed control at 125 g/ha?
10%

Item FC(F)(F)CC[C@@H]1OCc2cccc(Oc3ncc(Cl)cn3)c21 [Compound 21] with foxtail, giant (giant foxtail, Setaria faberii) - pest or weed control at 125 g/ha?
0%

Item FC(F)(F)CCCC1OCCc2cccc(Oc3ncc(Cl)cn3)c21 (stereo not shown) [Compound 27] with foxtail, giant (giant foxtail, Setaria faberii) - pest or weed control at 125 g/ha?
100%

Item O=C1OCC(CCC(F)(F)F)c2c(Oc3ncc(Cl)cn3)cccc21 (stereo not shown) [Compound 25] with foxtail, giant (giant foxtail, Setaria faberii) - pest or weed control at 125 g/ha?
90%

Item FC(F)(F)CC[C@H]1OCc2cccc(Oc3ncc(Cl)cn3)c21 [Compound 20] with foxtail, giant (giant foxtail, Setaria faberii) - pest or weed control at 125 g/ha?
100%

Item O=C1OC(CCCCC(F)(F)F)Cc2c(Oc3ncc(Cl)cn3)cccc21 (stereo not shown) [Compound 31] with foxtail, giant (giant foxtail, Setaria faberii) - pest or weed control at 125 g/ha?
0%

Item O=C1OCc2cccc(Oc3ncc(Cl)cn3)c2C1CCCC(F)(F)F (stereo not shown) [Compound 26] with foxtail, giant (giant foxtail, Setaria faberii) - pest or weed control at 125 g/ha?
60%
